B1: glmS ribozyme (parent)
chain: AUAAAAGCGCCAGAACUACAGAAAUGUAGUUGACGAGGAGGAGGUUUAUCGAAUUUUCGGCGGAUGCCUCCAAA

Variants of: B1
Assay: self-cleavage kobs at 160 uM GlcN6P; higher = faster cleavage; RNA array
Conditions: with glucosamine-6-phosphate
Variants at the floor of the assay were thinned out.

>  <variantCode>
G44A A48G

>  <self-cleavage kobs at 160 uM GlcN6P>
< 1e-05 s⁻¹

$$$$
>  <variantCode>
C16U A53G U54C

>  <self-cleavage kobs at 160 uM GlcN6P>
0.000683 s⁻¹

$$$$
>  <variantCode>
G35C U55A

>  <self-cleavage kobs at 160 uM GlcN6P>
< 1e-05 s⁻¹

$$$$
>  <variantCode>
U49G C61U

>  <self-cleavage kobs at 160 uM GlcN6P>
< 1e-05 s⁻¹

$$$$
>  <variantCode>
G40C U45A

>  <self-cleavage kobs at 160 uM GlcN6P>
0.000183 s⁻¹

$$$$
>  <variantCode>
A14G U69G

>  <self-cleavage kobs at 160 uM GlcN6P>
5.73e-05 s⁻¹

$$$$
>  <variantCode>
G59U G60A

>  <self-cleavage kobs at 160 uM GlcN6P>
< 1e-05 s⁻¹

$$$$
>  <variantCode>
A28G U30G C67U C71U

>  <self-cleavage kobs at 160 uM GlcN6P>
4.89e-05 s⁻¹

$$$$
>  <variantCode>
C10U U56A G62A U65A U69G

>  <self-cleavage kobs at 160 uM GlcN6P>
3.94e-05 s⁻¹

$$$$
>  <variantCode>
U54A

>  <self-cleavage kobs at 160 uM GlcN6P>
0.00285 s⁻¹

$$$$
>  <variantCode>
A33U G63C

>  <self-cleavage kobs at 160 uM GlcN6P>
< 1e-05 s⁻¹

$$$$
>  <variantCode>
A39C G59C

>  <self-cleavage kobs at 160 uM GlcN6P>
< 1e-05 s⁻¹

$$$$
>  <variantCode>
C16G A39C

>  <self-cleavage kobs at 160 uM GlcN6P>
4.38e-05 s⁻¹

$$$$
>  <variantCode>
G7U U69C

>  <self-cleavage kobs at 160 uM GlcN6P>
< 1e-05 s⁻¹

$$$$
>  <variantCode>
U30C G32U C34G C50G

>  <self-cleavage kobs at 160 uM GlcN6P>
7.22e-05 s⁻¹

$$$$
>  <variantCode>
C10U A33G

>  <self-cleavage kobs at 160 uM GlcN6P>
< 1e-05 s⁻¹

$$$$
>  <variantCode>
A64G C70U

>  <self-cleavage kobs at 160 uM GlcN6P>
0.000149 s⁻¹

$$$$
>  <variantCode>
G7U U31A

>  <self-cleavage kobs at 160 uM GlcN6P>
< 1e-05 s⁻¹

$$$$
>  <variantCode>
A12U U46C C67A

>  <self-cleavage kobs at 160 uM GlcN6P>
0.00011 s⁻¹

$$$$
>  <variantCode>
A6G C34G G51U G63A

>  <self-cleavage kobs at 160 uM GlcN6P>
< 1e-05 s⁻¹

$$$$
>  <variantCode>
G29U C68U

>  <self-cleavage kobs at 160 uM GlcN6P>
6.87e-05 s⁻¹

$$$$
>  <variantCode>
A6G C67U C71U

>  <self-cleavage kobs at 160 uM GlcN6P>
< 1e-05 s⁻¹

$$$$
>  <variantCode>
C16U U31C

>  <self-cleavage kobs at 160 uM GlcN6P>
0.000588 s⁻¹

$$$$
>  <variantCode>
C16U G41C G43C A48U U57C

>  <self-cleavage kobs at 160 uM GlcN6P>
< 1e-05 s⁻¹

$$$$
>  <variantCode>
A14U A33C G59A

>  <self-cleavage kobs at 160 uM GlcN6P>
< 1e-05 s⁻¹

$$$$
>  <variantCode>
A39C G66U

>  <self-cleavage kobs at 160 uM GlcN6P>
8.13e-05 s⁻¹

$$$$
>  <variantCode>
U47A U56C

>  <self-cleavage kobs at 160 uM GlcN6P>
0.000111 s⁻¹

$$$$
>  <variantCode>
G7U A42G

>  <self-cleavage kobs at 160 uM GlcN6P>
< 1e-05 s⁻¹

$$$$
>  <variantCode>
A15U A52U C58A C70U

>  <self-cleavage kobs at 160 uM GlcN6P>
< 1e-05 s⁻¹

$$$$
>  <variantCode>
U30C G35A

>  <self-cleavage kobs at 160 uM GlcN6P>
< 1e-05 s⁻¹

$$$$
>  <variantCode>
U31A A52G

>  <self-cleavage kobs at 160 uM GlcN6P>
4.63e-05 s⁻¹

$$$$
>  <variantCode>
G41U A52U U57C

>  <self-cleavage kobs at 160 uM GlcN6P>
< 1e-05 s⁻¹

$$$$
>  <variantCode>
U46G U65G

>  <self-cleavage kobs at 160 uM GlcN6P>
0.000189 s⁻¹

$$$$
>  <variantCode>
A6G A64G C67G

>  <self-cleavage kobs at 160 uM GlcN6P>
< 1e-05 s⁻¹

$$$$
>  <variantCode>
C8U U47C

>  <self-cleavage kobs at 160 uM GlcN6P>
< 1e-05 s⁻¹

$$$$
>  <variantCode>
A14G U65C

>  <self-cleavage kobs at 160 uM GlcN6P>
0.000176 s⁻¹

$$$$
>  <variantCode>
G29C U31C A33C A36C A53U

>  <self-cleavage kobs at 160 uM GlcN6P>
< 1e-05 s⁻¹

$$$$
>  <variantCode>
G7A A36G

>  <self-cleavage kobs at 160 uM GlcN6P>
< 1e-05 s⁻¹

$$$$
>  <variantCode>
G44C A48C

>  <self-cleavage kobs at 160 uM GlcN6P>
< 1e-05 s⁻¹

$$$$
>  <variantCode>
A64U C70A

>  <self-cleavage kobs at 160 uM GlcN6P>
< 1e-05 s⁻¹

$$$$
>  <variantCode>
A14G A33C U46G C58U G59U

>  <self-cleavage kobs at 160 uM GlcN6P>
< 1e-05 s⁻¹

$$$$
>  <variantCode>
C10U C11U G13A

>  <self-cleavage kobs at 160 uM GlcN6P>
< 1e-05 s⁻¹

$$$$
>  <variantCode>
U47A G60A

>  <self-cleavage kobs at 160 uM GlcN6P>
< 1e-05 s⁻¹

$$$$
>  <variantCode>
A15G U49G

>  <self-cleavage kobs at 160 uM GlcN6P>
0.000118 s⁻¹

$$$$
>  <variantCode>
C50G A52U U56G A64U

>  <self-cleavage kobs at 160 uM GlcN6P>
< 1e-05 s⁻¹

$$$$
>  <variantCode>
G32C G66U

>  <self-cleavage kobs at 160 uM GlcN6P>
< 1e-05 s⁻¹

$$$$
>  <variantCode>
G29U U56G

>  <self-cleavage kobs at 160 uM GlcN6P>
0.000127 s⁻¹

$$$$
>  <variantCode>
G41C G66A

>  <self-cleavage kobs at 160 uM GlcN6P>
6.76e-05 s⁻¹

$$$$
>  <variantCode>
G7U C71G

>  <self-cleavage kobs at 160 uM GlcN6P>
< 1e-05 s⁻¹

$$$$
>  <variantCode>
A12C G29C

>  <self-cleavage kobs at 160 uM GlcN6P>
0.000193 s⁻¹

$$$$
>  <variantCode>
G13C U57C

>  <self-cleavage kobs at 160 uM GlcN6P>
< 1e-05 s⁻¹

$$$$
>  <variantCode>
U46A U57G

>  <self-cleavage kobs at 160 uM GlcN6P>
< 1e-05 s⁻¹

$$$$
>  <variantCode>
G32A U47G

>  <self-cleavage kobs at 160 uM GlcN6P>
5.19e-05 s⁻¹

$$$$
>  <variantCode>
G7A G13A G37C U46G

>  <self-cleavage kobs at 160 uM GlcN6P>
< 1e-05 s⁻¹

$$$$
>  <variantCode>
A33U U46A

>  <self-cleavage kobs at 160 uM GlcN6P>
< 1e-05 s⁻¹

$$$$
>  <variantCode>
G41C A52C C68U

>  <self-cleavage kobs at 160 uM GlcN6P>
< 1e-05 s⁻¹

$$$$
>  <variantCode>
G29A G40A

>  <self-cleavage kobs at 160 uM GlcN6P>
3.78e-05 s⁻¹

$$$$
>  <variantCode>
G9C A14G G59U

>  <self-cleavage kobs at 160 uM GlcN6P>
< 1e-05 s⁻¹

$$$$
>  <variantCode>
U30C U56C A64U

>  <self-cleavage kobs at 160 uM GlcN6P>
< 1e-05 s⁻¹

$$$$
>  <variantCode>
U45C A53C C67U

>  <self-cleavage kobs at 160 uM GlcN6P>
< 1e-05 s⁻¹

$$$$
>  <variantCode>
G35C C61U

>  <self-cleavage kobs at 160 uM GlcN6P>
< 1e-05 s⁻¹

$$$$
>  <variantCode>
A14G U56G U57C

>  <self-cleavage kobs at 160 uM GlcN6P>
3.78e-05 s⁻¹

$$$$
>  <variantCode>
A14U U69G

>  <self-cleavage kobs at 160 uM GlcN6P>
4.67e-05 s⁻¹

$$$$
>  <variantCode>
C34G C50G

>  <self-cleavage kobs at 160 uM GlcN6P>
5.61e-05 s⁻¹

$$$$
>  <variantCode>
A6U A52C

>  <self-cleavage kobs at 160 uM GlcN6P>
< 1e-05 s⁻¹

$$$$
>  <variantCode>
C71G

>  <self-cleavage kobs at 160 uM GlcN6P>
0.00041 s⁻¹

$$$$
>  <variantCode>
G7A A12U

>  <self-cleavage kobs at 160 uM GlcN6P>
< 1e-05 s⁻¹

$$$$
>  <variantCode>
G43C A53G

>  <self-cleavage kobs at 160 uM GlcN6P>
< 1e-05 s⁻¹

$$$$
>  <variantCode>
C8A A36U

>  <self-cleavage kobs at 160 uM GlcN6P>
< 1e-05 s⁻¹

$$$$
>  <variantCode>
A42G G60A C68A

>  <self-cleavage kobs at 160 uM GlcN6P>
< 1e-05 s⁻¹

$$$$
>  <variantCode>
C10A A12U U46A

>  <self-cleavage kobs at 160 uM GlcN6P>
< 1e-05 s⁻¹

$$$$
>  <variantCode>
U46C A53U

>  <self-cleavage kobs at 160 uM GlcN6P>
0.000145 s⁻¹

$$$$
>  <variantCode>
G29A U45A

>  <self-cleavage kobs at 160 uM GlcN6P>
0.000411 s⁻¹

$$$$
>  <variantCode>
A12G A36U C50G A64U C68U

>  <self-cleavage kobs at 160 uM GlcN6P>
6.37e-05 s⁻¹

$$$$
>  <variantCode>
G29C A48G

>  <self-cleavage kobs at 160 uM GlcN6P>
< 1e-05 s⁻¹

$$$$
>  <variantCode>
A39C U65G C70G

>  <self-cleavage kobs at 160 uM GlcN6P>
< 1e-05 s⁻¹

$$$$
>  <variantCode>
C11G C16U

>  <self-cleavage kobs at 160 uM GlcN6P>
< 1e-05 s⁻¹

$$$$
>  <variantCode>
A33G G37U G59C

>  <self-cleavage kobs at 160 uM GlcN6P>
< 1e-05 s⁻¹

$$$$
>  <variantCode>
G43U C68G

>  <self-cleavage kobs at 160 uM GlcN6P>
0.00129 s⁻¹

$$$$
>  <variantCode>
G51C U54G

>  <self-cleavage kobs at 160 uM GlcN6P>
< 1e-05 s⁻¹

$$$$
>  <variantCode>
G40A G59U

>  <self-cleavage kobs at 160 uM GlcN6P>
< 1e-05 s⁻¹

$$$$
>  <variantCode>
U46C U54A C61U

>  <self-cleavage kobs at 160 uM GlcN6P>
< 1e-05 s⁻¹

$$$$
>  <variantCode>
C8U G44U

>  <self-cleavage kobs at 160 uM GlcN6P>
< 1e-05 s⁻¹

$$$$
>  <variantCode>
C34A G37U

>  <self-cleavage kobs at 160 uM GlcN6P>
< 1e-05 s⁻¹

$$$$
>  <variantCode>
G7U C50G

>  <self-cleavage kobs at 160 uM GlcN6P>
0.000551 s⁻¹

$$$$
>  <variantCode>
C10A A33C

>  <self-cleavage kobs at 160 uM GlcN6P>
< 1e-05 s⁻¹

$$$$
>  <variantCode>
C58G C71A

>  <self-cleavage kobs at 160 uM GlcN6P>
4.45e-05 s⁻¹

$$$$
>  <variantCode>
C16G G35U

>  <self-cleavage kobs at 160 uM GlcN6P>
< 1e-05 s⁻¹

$$$$
>  <variantCode>
A15G C58G G63C C68G

>  <self-cleavage kobs at 160 uM GlcN6P>
0.000162 s⁻¹

$$$$
>  <variantCode>
C34A G44A

>  <self-cleavage kobs at 160 uM GlcN6P>
< 1e-05 s⁻¹

$$$$
>  <variantCode>
G7U G41C A52G

>  <self-cleavage kobs at 160 uM GlcN6P>
< 1e-05 s⁻¹

$$$$
